Data origin, for the record: PubChem BioAssay (NCI)

Measured growth inhibition accompanies every entry in the list below.
- assay.overview: NCI Yeast Anticancer Drug Screen. Data for the mec2-1 strain (AID 157)
- experimental.context: S. cerevisiae mec2-1 strain, at 50.0 µM, active compounds read high
Compounds without any hit were thinned out: in the full panel of roughly 79,000, 15% have a hit.
Express the result in % but write the number alone.

Please review the following examples before continuing.
INSERT INTO measurements (molecule, measured_value) VALUES
  ('COc1cc2c(cc1OC)C[N+]1(C)CCc3cc(OC)c(OC)cc3C1C2 (stereo unspecified)', -30.9),
  ('CCCCCCCCCC(=O)N/N=C/c1ccncc1', 23.1),
  ('CC1(O)CCC2(CCC(C)(O)CC2=O)C(=O)C1 (stereo unspecified)', -9.75),
  ('N#Cc1ccc(NN=NCCCCCl)cc1', -8.3),
  ('CCOC(=O)Oc1ccc(Cl)cc1Cl', 14.1),
  ('O=C(N/N=C/c1ccccc1Cl)c1ccccc1', -1.25);

# growth inhibition of OC1OCC(COc2ccc(Cl)cc2)OC1O (stereo unspecified) = -9.05

# growth inhibition of Cn1cc(/C=C\C(=O)O)c2ccccc21 = -0.6

# growth inhibition of CCOC(=O)CCC(NC(=O)c1ccc(N(C)C=O)cc1)C(=O)OCC (stereo unspecified) = -6.8

# growth inhibition of CN1C2CCC1C1N=NN(c3cc(C(F)(F)F)cc(C(F)(F)F)c3)C1(N1CCOCC1)C2 (stereo unspecified) = -9.6

# growth inhibition of Cc1cc([N+](=O)[O-])c(Cl)cc1Cl = 25.3

# growth inhibition of CCCCC(N)=O = -9.05

# growth inhibition of Cc1ccc(-n2nnc(-c3ccc(Cl)c(Cl)c3)n2)cc1 = -40.8

# growth inhibition of CCC(C=NCCBr)(CCC(=O)OC)CCC(=O)OC = 16.2

# growth inhibition of CC(=O)c1cccc(NC(=O)Oc2ccc(F)cc2Cl)c1 = 29.1

# growth inhibition of N#CCCC(CCC#N)(CCC(CCC#N)(CCC#N)[N+](=O)[O-])[N+](=O)[O-] = 11

# growth inhibition of O=C(O)/C=C\C(=O)Nc1ccc(N=Nc2ccccc2)cc1 = -39.9

# growth inhibition of C=C(C)C(=O)OCCn1c(=O)c2c(ncn2C)n(C)c1=O = -18.8

# growth inhibition of CCC1(CC)CC(=O)NC1=O = -11.6

# growth inhibition of OCCN(c1ccccc1)c1nc(N(CCO)c2ccccc2)nc(N(CCO)c2ccccc2)n1 = 8.8

# growth inhibition of CC(=O)N(C(=O)CC(=O)N1N=C(c2ccccc2)C(N=Nc2ccccc2[N+](=O)[O-])C1=O)c1ccc(Cl)cc1 (stereo unspecified) = -21.8

# growth inhibition of COc1cc(OC)cc(N(C)Cc2cnc3nc(N)nc(N)c3c2C)c1 = 11.7

# growth inhibition of C=CC(=NC(C)(C)C)Nc1ccc(Cl)cc1 = -6.8

---

Measured growth inhibition accompanies every entry in the list below.
- assay.overview: NCI Yeast Anticancer Drug Screen. Data for the bub3 strain (AID 167)
- experimental.context: S. cerevisiae bub3 mutant strain, at 50.0 µM, active compounds read high
The panel holds about 79,000 compounds, 15% with a hit somewhere; the sample as a whole holds those more often.
Express the result in % but write the number alone.

Please review the following examples before continuing.
INSERT INTO results (compound, measured_value) VALUES
  ('NCCCC(=O)NCCCCCCCCCCNC(=O)CCCN', -4.45),
  ('CC1C=CCCC1COC(=O)C(=O)OCC1CC=CCC1C (stereo not drawn)', 31.9);

Consider the record given below.
# growth inhibition of CCCCc1c(O)c2c(=O)n(C)c(=O)n3c4ccccc4n(c1=O)c23 = -0.3

---

- assay.overview: NCI Yeast Anticancer Drug Screen. Data for the bub3 strain (AID 167)
- experimental.context: S. cerevisiae bub3 mutant strain, at 50.0 µM, active compounds read high
About 79,000 compounds went through this panel and 15% of them were active in at least one assay; those are over-represented in the sample as a whole.
outcome.measure: growth inhibition (%)
Express the result in % but write the number alone.

INSERT INTO assay_data (compound, measured_value) VALUES
  ('Oc1ccccc1/C=N\c1nccs1', 23.8);

# growth inhibition of CC(=O)OCC12CCC(C)=CC1O[C@H]1[C@@H](OC(C)=O)[C@H](OC(C)=O)[C@]2(C)[C@@]12CO2 (stereo partly specified) = -14.6

# growth inhibition of O=Cc1ccc(O)cn1 = 1.75

---

Measured growth inhibition accompanies every entry in the list below.
- assay.overview: NCI Yeast Anticancer Drug Screen. Data for the cln2 rad14 strain (AID 165);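 also: 0% = growth equal to vehicle treated cultures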
- experimental.context: S. cerevisiae cln2 rad14 strain, at 50.0 µM, active compounds read high
Compounds without any hit were thinned out: in the full panel of roughly 79,000, 15% have a hit.
Express the result in % but write the number alone.

INSERT INTO results (compound, units_label, measured_value) VALUES
  ('COc1cc(/C=C2/C(=O)N(C(=O)c3ccccc3O)N=C2C)ccc1O', '%', 9.75),
  ('CCOc1c2ccsc2c(OCC)c2ccsc12', '%', 6.05),
  ('CCC1OC(=O)CC(O)C(C)C(OC2OC(C)CC(N(C)C)C2O)C(CC=O)CC(C)C(=O)/C=C/C2(C)OC2C1C (stereo not given)', '%', -1.55),
  ('O=C(O)CSc1cc(Br)c(Br)cc1C(=O)O', '%', 9.5),
  ('CC(=O)N1CN2C(=O)CCC2c2ccccc21 (stereo not given)', '%', 9.25);

# growth inhibition of CCOC(=O)c1cnc2[nH]ccn2c1=O = 10.3

# growth inhibition of CN1C(=O)Cc2ccccc21 = 11.5

# growth inhibition of CCC/C=C1\CCC(CN(C)C)C1=O (stereo not given) = -1.4

# growth inhibition of CC(C)(Nc1nc2c(ncn2C2OC(CO)C(O)C2O)c(=O)[nH]1)P(=O)(O)O (stereo not given) = 11.1

# growth inhibition of CCOC(=O)c1nc(SC)sc1NC(=O)c1ccc(OC)cc1 = 6.2

---

- assay.overview: NCI Yeast Anticancer Drug Screen. Data for the cln2 rad14 strain (AID 165);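 also: 0% = growth equal to vehicle treated cultures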
- experimental.context: S. cerevisiae cln2 rad14 strain, at 50.0 µM, active compounds read high
About 79,000 compounds went through this panel and 15% of them were active in at least one assay; those are over-represented in the sample as a whole.
Measured growth inhibition accompanies every entry in the list below.
Express the result in % but write the number alone.

Please review the following examples before continuing.
INSERT INTO measurements (molecule, outcome_measure, units_label, measured_value) VALUES
  ('O=C(C[n+]1cccc(C(=O)Nc2ccc(Cl)cc2)c1)Nc1ccccc1', 'growth inhibition', '%', 15.2),
  ('CC(=O)OC1CN(c2ccc(Br)cc2)CC(OC(C)=O)CN(c2ccc(Br)cc2)C1 (centres undefined)', 'growth inhibition', '%', -32.9),
  ('Cc1cccc(C)c1NC(=S)N1CCC(CCCC2CCN(C(=S)Nc3c(C)cccc3C)CC2)CC1', 'growth inhibition', '%', 15.7);

Consider the record given below.
# growth inhibition of Cc1nc(NS(=O)(=O)c2ccc(N)cc2)nc(C)c1Br = -52

---

- assay.overview: NCI Yeast Anticancer Drug Screen. Data for the bub3 strain (AID 167)
- experimental.context: S. cerevisiae bub3 mutant strain, at 50.0 µM, active compounds read high
Compounds without any hit were thinned out: in the full panel of roughly 79,000, 15% have a hit.
Measured growth inhibition accompanies every entry in the list below.
Express the result in % but write the number alone.

Please review the following examples before continuing.
INSERT INTO assay_data (molecule, outcome_measure, units_label, measured_value) VALUES
  ('CN(C)C=NCc1ccc2c(c1)OCO2', 'growth inhibition', '%', 1.5),
  ('COc1ccc2c(c1)OC(OC)(c1ccc(OC)c(OC)c1)C(O)(OC)C2=O (stereo not drawn)', 'growth inhibition', '%', 11.8);

Consider the record given below.
# growth inhibition of CCOc1c(Cl)c(Cl)c(Cl)c(Cl)c1Cl = -2.9

---

- assay.overview: NCI Yeast Anticancer Drug Screen. Data for the sgs1 mgt1 strain (AID 161);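 also: 0% = growth of cultures given vehicle only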
- experimental.context: S. cerevisiae sgs1 mgt1 strain, at 50.0 µM, active compounds read high
This is part of a sample that, as a whole, favours compounds with a hit. Of some 79,000 tested, about 15% had one in any assay.
Measured growth inhibition accompanies every entry in the list below.
Express the result in % but write the number alone.

INSERT INTO assay_data (compound, measured_value) VALUES
  ('O=C(N/N=C/c1ccc(O)cc1)C1CCCO1 (stereo not drawn)', -1.35),
  ('COc1nc2c(c(=O)n1C)N(C(C)=O)C1C(N2)OCC(OC(C)=O)C1OC(C)=O (stereo not drawn)', -2.55);

# growth inhibition of O=C(CCCC(=O)N/N=C/c1ccc(I)cc1)N/N=C\c1ccc(I)cc1 = 25.2
